target: human DGKζ (Homo sapiens (Human), UniProt Q13574); test: DGKζ LIPGLO assay (extruded liposome substrate, ADP-Glo luminescence); format: biochemical; conditions: liposome assay; read-out: DGK zeta LIPGLO IC50
Sequence (Q13574 other isoform, or with tags, fused parts or gaps): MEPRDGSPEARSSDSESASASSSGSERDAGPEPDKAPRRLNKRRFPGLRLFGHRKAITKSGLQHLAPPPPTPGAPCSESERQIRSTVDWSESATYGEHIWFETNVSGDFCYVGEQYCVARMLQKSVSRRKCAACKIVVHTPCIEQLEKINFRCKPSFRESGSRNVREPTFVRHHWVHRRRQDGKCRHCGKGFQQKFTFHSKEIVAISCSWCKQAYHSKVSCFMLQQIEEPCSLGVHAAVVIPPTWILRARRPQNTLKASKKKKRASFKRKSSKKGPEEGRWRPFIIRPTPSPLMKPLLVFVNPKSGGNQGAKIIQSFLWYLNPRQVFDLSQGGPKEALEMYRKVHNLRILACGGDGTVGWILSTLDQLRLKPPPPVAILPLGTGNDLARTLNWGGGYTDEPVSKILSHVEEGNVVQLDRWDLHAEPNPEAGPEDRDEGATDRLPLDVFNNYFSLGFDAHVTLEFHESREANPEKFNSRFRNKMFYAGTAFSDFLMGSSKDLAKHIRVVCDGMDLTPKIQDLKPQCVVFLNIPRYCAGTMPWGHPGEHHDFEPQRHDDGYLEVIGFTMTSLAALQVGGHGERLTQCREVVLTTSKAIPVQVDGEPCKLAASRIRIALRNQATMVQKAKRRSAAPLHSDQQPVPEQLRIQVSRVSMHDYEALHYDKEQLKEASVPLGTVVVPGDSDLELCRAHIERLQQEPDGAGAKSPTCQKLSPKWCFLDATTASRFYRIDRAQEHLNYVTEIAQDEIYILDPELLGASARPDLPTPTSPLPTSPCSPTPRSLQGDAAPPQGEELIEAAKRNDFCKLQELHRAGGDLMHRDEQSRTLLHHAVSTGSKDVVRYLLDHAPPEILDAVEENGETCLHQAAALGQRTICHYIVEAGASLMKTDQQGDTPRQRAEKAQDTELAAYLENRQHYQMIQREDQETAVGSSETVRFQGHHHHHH
QUANTITY: pIC50
Reminder that pIC50 means the negative base-10 logarithm of the concentration expressed in mol/L.

# COMPOUND, pIC50
data = [
    ("CCC(c1ccc(C#N)cc1)N1C[C@H](CC)N(c2nc(=O)n(C)c3ccc(C#N)nc23)C[C@H]1CC (stereo partly shown) [Example 220]", 7.34),
    ("CC(c1ccc2c(c1)OC(F)(F)O2)N1C[C@H](C)N(c2nc(=O)n(C)c3ccc(C#N)nc23)C[C@H]1C (single isomer, unassigned) [Example 167]", 5.62),
    ("CC[C@H]1CN(C(c2ccc(F)cc2)c2csc(C(F)(F)F)n2)[C@H](CC)CN1c1nc(=O)n(C)c2ccc(C#N)nc12 (stereo partly shown) [Example 210]", 6.01),
]

Attention now turns to another entry.
Task: # lookup: pIC50 of CCC(c1ccc(Cl)cc1F)N1C[C@H](CC)N(c2nc(=O)n(C)c3ccc(C#N)nc23)C[C@H]1CC (stereo partly shown) [Example 238]
Result: 6.96

###

target: human DGKζ (Homo sapiens (Human), UniProt Q13574); experiment: DGKζ LIPGLO assay (extruded liposome substrate, ADP-Glo luminescence); format: biochemical; details: liposome assay; read-out: DGK zeta LIPGLO IC50
As shown below, each of these compounds has a reported pIC50 value.
Reminder that pIC50 means the negative base-10 logarithm of the concentration expressed in mol/L.

# COMPOUND, pIC50
measured = [
    ("C[C@@H]1CN(c2nc(=O)n(C)c3ccc(C#N)nc23)[C@@H](C)CN1C(c1ccc(F)cc1)c1nc(C2CC2)no1 (single isomer, unassigned) [Example 106]", 6.89),
]

Task: # lookup: pIC50 of CCC(c1ccc(OCC2CC2)cc1F)N1C[C@H](CC)N(c2nc(=O)n(C)c3ccc(C#N)nc23)C[C@H]1CC (stereo partly drawn) [Example 199]
Result: 6.04

Task: Next compound: CC(c1ccc(C2CC2)cc1F)N1C[C@H](C)N(c2nc(=O)n(C)c3ccc(C#N)nc23)C[C@H]1C (single isomer, unassigned) [Example 168]
Result: 6.82

###

target: human DGKζ (Homo sapiens (Human)); assay: DGKζ LIPGLO assay (extruded liposome substrate, ADP-Glo luminescence); assay type: biochemical; details: liposome assay; read-out: DGK zeta LIPGLO IC50
QUANTITY: pIC50
Reminder that pIC50 means the negative base-10 logarithm of the concentration expressed in mol/L.

Below: 2 compounds and their reported pIC50.
# COMPOUND, QUANTITY, MEASURED RESULT
rows = [
    ("CC[C@H]1CN(C(C)c2ccc(C3CC3)cc2F)[C@H](CC)CN1c1nc(=O)n(C)c2ccc(C#N)nc12 (single isomer, unassigned) [Example 41]", "pIC50", 5.97),
    ("C[C@@H]1CN(c2nc(=O)n(C)c3ccc(C#N)nc23)[C@@H](C)CN1Cc1ccc2c(c1)OC(F)(F)O2", "pIC50", 5.85),
]

Task: # lookup: pIC50 of CC[C@H]1CN(C(C)c2ccc(CN3CCOC(C)(C)C3)cc2)[C@H](CC)CN1c1nc(=O)n(C)c2ccc(C#N)nc12 (stereo partly drawn) [Example 276]
Result: 5.86
